Sourced from the DeepSol protein solubility set

Test: soluble on expression in E. coli; label from the status in PepcDB or PDB records
readout: soluble on expression in E. coli

>>> result("MLELAILGLLIESPMHGYELRKRLTGLLGAFRAFSYGSLYPALRRMQADGLIAENAAPAGTPVRRARRVYQLTDKGRRRFGELVADTGPHNYTDDGFGVHLAFFNRTPAEARMRILEGRRRQVEERREGLREAVARASSSFDRYTRQLHQLGLESSEREVKWLNELIAAERAAPNPAEQT")
"not soluble"
>>> result("MGHHHHHHSHMKIELSMQPWNPGYSSEGATAQETYTCPKMIEMEQAEAQLAELDLLASMFPGENELIVNDQLAVAELKDCIEKKTMEGRSSKVYFTINMNLDVSDEKMAMFSLACILPFKYPAVLPEITVRSVLLSRSQQTQLNTDLTAFLQKHCHGDVCILNATEWVREHASGYVSRDTSSSPTTGSTVQSVDLIFTRLWIYSHHIYNKCKRKNILEWAKELSLSGFSMPGKPGVVCVEGPQSACEEFWSRLRKLNWKRILIRHREDIPFDGTNDETERQRKFSIFEEKVFSVNGARGNHMDFGQLYQFLNTKGCGDVFQMFFGVEGQ")
"not soluble"
>>> result("MAHHHHHHMTAALNRKFDLLQKSGTCPSYLLDVLTLLVAHANETELFKQELRSAPFENAAPPLRADRGMVAAAAPQPEMGTQTVTQPEAPGTEKEVLLAAERTLRAYASDLRKINDIAMATSSKKLREMKMSNFTEMAAFRDRVVSDAVDRAREELELLRMGWLESMNTEVERAKMEVHKVGLSSQKALHKMLEGYRDYVSDGFRLLKTEPLEVMHRAMAECAFCVERLKIMEQQVVPRIEIDALCGRLKSVERVIAQMLKKRHSSGVVDDEISVVPTAGPSETGASTAAAGDDRPLGLRLRDGGNDVEGLIVTEVAPNSLASKARISPGQIISHVGDALVTRRDDFTTAMQKTGSAAKLTIYDPETAVVRILTLKP")
"soluble"
>>> result("MKRSIAPLLVCPACLPKERPLELTATAEADGDITAGHLSCKGCRRRFPIRDGIAVLLPDPDTGPSGGQWKYEEQGTLATYLWSHFADLAGDPEAGDAYASWASALAGNAETSLDAGCAVGRLTFELGQRSGLAVGFDLSLTFIRAARQLARERQIRFSLPREGNLRDEFRLTLPDCWRTDEVEFVVADALAIPFARETFDRTASLNLIDRVSYPLAHLYEMNRVARLSGASFLLSDPFSWSTANAPEEKWLGGTESGPYSGRGMDNVKAILGGKEAIIAPPWTVAREGSVWWKIRSHRNHFELIRSEFLVAERLEHHHHHH")
"not soluble"
>>> result("MAHHHHHHMRRVERSSRGEGEDTLATGEANVRTDTTVDVLRRASRHAQGAIETSWMTTRRLQVQGEQLEEIDRALDKMEHDLGVGDDALRRMTWTGRVKRWFTSRRKQPSDGVESSTSSSVPSSSLPIKPQGLREKNQQREGTRGSKRDDVIGCGSSTSHIAMEEEKLLDALLGDVHAMREQATLQGAMLTEHNRRLDVIATKTDAVHNHVNRTKQKVEKML")
"soluble"
>>> result("MKKAVVVFSGGQDSTTCLVQALKEFDEVHAITFDYGQRHKLEIEVAQQLAKQLGVTAHKVMDVSLLNELAISSLTRDDIPVSHELQANGLPNSFVPGRNILFLTLAGIYAYQIGATTVITGVCETDFSGYPDCRDEFVQAMNQALAKGMDLPLMIRTPLMWLNKAETWALADQLGALDLVRHQTLTCYNGLIGDGCGECPACGLRQAGLKAYLDNRDLIMSALKSKQSAAH")
"not soluble"
>>> result("MAHHHHHHMAYPYNAYLGYTQPPTQYGQPPVVAGAHGHLPVTTPLPYNAQSAYGGAQPP")
"not soluble"
>>> result("AIAHGVEFAPLERQHGSQVLALLRGTLLVPLPRLHQRLEEAYERDARLGLAQVALCRLAGNAEKVVGVLLARVATRRTCCAQVYIDAVAVDAVFQGQGIGSRLLLRVLTPCLPDGLEVREVFLHTPLQATELVAFYRSCGFESDDEVIDNYYPRRWMPQAQALVLRWRPPTAAQHQHEERKGPQDADVS")
"soluble"
>>> result("MGSDKIHHHHHHMPTLTEIGNDQLTVQISSLGAEMQSLRTKDGQSLLWHGDAAYWGGRSPILFPIVGKAKDDTLLIDGKPYSMAQHGIARRREFTLLEAGADVCRHELTAGDETKAAYPFDFSLVLEHRLHGAALTVAATVSNRSDTPMPYGLGFHPAFLWPLPGAEGKPHTITLENGAEPPLLRLGGGLLAEEARPSPFHAGRLVLDKSQFEEDAMIFPEGAGTELTYRAEDAASLHFHFENLPNLALWQKPGAPFICIEPWHGMAARHGKSGELTERPYTVILAPGDSARHGFTVTVEA")
"not soluble"
>>> result("MATMDEKPLYGLERTVFRQLLHLFSRYADVIEKVILFGSRARGDYKEGSDIDLAIKFRKPGGPLYLLQSDLDELPIIYPIDVVDYNQIHNEQLKMNIDQEGKTIFQTNEHGKVMVTMSRLMDRFYDFERALSKLRQSAARDAQTDDLVVDATIQRFEFTYELAWKWMKLYLEHQGYAEVTSPRKTIREAFREGLIQDGETWLRMLEDRNRTSHTYDEETAMDIYERIRIHYIPLFDRLLDEMKQRLDSAT")
"not soluble"
>>> result("SLIKEQASKLIKEIVNQISSLASISNFVLLFPRLDFKGLGYIPQLFFIFVKHDLIEENLSSVSSARAVIDFTNTKSEYVNFNITPRPEIVTINKGILSSIYDQTLIRALRETPFMNSALEFNSNFIKMQFRQRFNLGVYYSMYSPSVGFHEVVSISSLKLKDTVYLEEVEISLQVKICKTFNILTYKG")
"soluble"
>>> result("STNNNPAPLLGFRIAHLLEQEPDTKDLTINVKTEILKHEFGPIKSSFSFSPHKFFEEDVKKQELYFFLIAVGIEEDDAKLMMTDMIFYVLGNIDELRGVLTLLLKVQFPSFEPIEEH")
"soluble"

----------
Assay: soluble on expression in E. coli; label from the status in PepcDB or PDB records
readout: soluble on expression in E. coli

>>> result("MGHHHHHHSHMEKRKPTIQNIEVSDHTAELSLRVDADILDFQGHFSHFPLLPGVTQIDWALFYAVQYLNTPKVFKGMEVIKFQEPILPNADVCLSLSWDNEREKLTFKYTSKNGETLVTHSSGKMKLGESRE")
"soluble"
>>> result("MGSDKIHHHHHHMVLRNSEGTHVHAADADQRPRAICLSTMTTNMQIVTLFRDAPDFAEPGNFEAHLVRLWSVIEALSGKDDRLGQWYLTGSTEEEALLYPAFEASGAPSTALLAVLKTKYQGKRNRAKVVGLWNGHNNPTDGATLKLSIDTGPLPSEVAIDPPKPRDAETGLAPLAAIQGIVSLLVATYAPAVVSVAPMDYFEKKVFDDKPGVGWMLYLPKVITQQQVPEARALIPVPAKGKQTGTIIVSVTDAPFSVDNPEHVAIANRIEIRLVDQDLLPAYVDI")
"not soluble"
>>> result("MSLPANKLVFVGGMGAGKTTAVRAISDVEPVSTEMPLSQDAYGDKTYTTVALDYSSIELEDGELLHVYGVPGQKYLDFMWPLVCDGALGVIVLTSARDTQMRDTTLELLREFSRITPEASLAVGVTMTDEVQEFLLPPFREALVAEGFRIPVMRVDARSATQITFLVKTLLSYRYTSAPVLEHHHHHH")
"soluble"
>>> result("MEVMRGVRVIEGMNGGRFPYCNVVVVGDVVIDAGAGLEVMRKVNASLLVLSHLHPDHSSGAWLFKDVLAPAEGRITLDTLARRFVAPDLVESWKRFISAATGLREFECERYEEGVVVKEPEIVAVPVKGHTMDHHVFLIEQKVLFGADVDLTSFGPFYGNPEADPYLFEREMDKLLDIDFEIFVSAHSKPVFGKELEHHHHHH")
"not soluble"
>>> result("ICNKYKNINVNMKKNNDDTWTDLVKNSSDINKGVLLPPRRKNLFLKIDESDICKYKRDPKLFKDFIYSSAISEVERLKKVYGEAKTKVVHAMKYSFADIGSIIKGDDMMENNSSDKIGKILGDGVGQNEKRKKWWDMNKYHIWESMLSGYKHAYGNISENDRKMLDIPNNDDEHQFLRWFQEWTENFCTKRNELYENMVTACNSAKCNTSNGSVDKKECTEACKNYSNFILIKKKEYQSLNSQYDMNYKETKAEKKESPEYFKDKCNGECSCLSEYFKDETRWKNPYETLDDTEVKNNCMCK")
"soluble"
>>> result("MGSDKIHHHHHHMTKPMHTPPLVPPQAWEAAREQLLVKEKALTRARDALAAERRQMPWMAVEKEYAFEGPEGRVSLVDLFEGRRQLIVYRAFFEPGVFGWPDHACRGCSMVADQVAHLAHLNARDTTLVFVSRAPQADIARLKARMGWQIPWFTVTDSFDADFGVDEWHGTNVFYRDGDRVFRTYFINNRGDEQMGSTWNYLDITPLGRQEVWEDSPEGYPQTPTYKWWNWHDSYVKDAEPDKKWVEVSDAGEAAFRNQD")
"not soluble"
>>> result("MSLRKKIAAFGEVMMRLQVPGYELLSQANTLNYSFSGTGVNVVAALSHLGHEGLLISTLPENSVGDAAVSYIQKLGIQTSLVSRGGKYVGMYFLENGFGARASRVTYSNRLESSFNTASEEIYQFEEIAKEIDIVHFCGITLAMNDTVRHHMKSLARAVKENGGTVVFDCNYRPSLWGEDGYEQAKPHYEEMLGLADIVMMNEKDAMFVLGIKTEETEREAQLVDLIPKVAETYHIATIAGTHRSINSDNTHSLRGFICKDGTFTFAKTLTFSVYDRIGAGDAYTSGIIHGEIKEFAPEKAVSFASAAGMLAHTIVGDTPMSSEKDILRAMTASVGDVEREGHHHHHH")
"soluble"
>>> result("MVRAPIDGIVANRSAHTGSWVEGGTSLVSLVPVSELWVDANYKENQIAGMKPGMKAEIRADILKGEVFHGHIESLSPATGASFSLIPIENATGNFTKIVQRVPVRIAFDDAKELKQLLRPGLSVTVSVDER")
"not soluble"
>>> result("MLNLSGLSLSCEYQPFVCPHTKHIHGYEALARFYLGQGQAIAPNLVFEQLHENSNALAAVEFQAKTFQLKHAPARQSLFVNVDPHAANGVHTQKLLDLLSSHPQLTVEIIENTCISDAELANQLFHQFKTANLNVALDDIGAPHSMLSVDLMMNVDYLKFDRHWLNLVAEPHGIALLSALIEFGKRTGKQCILEGIETEAQLQLARELNVDLVQGFLFKPWFIRPEQSERLIC")
"soluble"
>>> result("MAHHHHHHMLANYDYESDLRGRTDELGRAQHVDAYDKHPTFLESPYAGQEDLLRDAPQSYMDGPPPGYGGHDAYEHVDMNGGGYDLPLQPQAQTQAVDTRRLSKDRLARGGLNIFSWSTDAPTLNHPREVRERDCAELQRLRPVDSAAQRDKEVREKFEGNTQSRFLCFSESDSPGKRRGVRVFNPNNKNGNLNSGTGHENPIQNRFNEEPQPFKIRQQQPRPLPQQNLPPAGRATHSNRQESGGIPGFAGMGEGRQHNARRGRGSYRG")
"soluble"
>>> result("SGKQPVKLKAVVYALSPFQQKIMTGLWKDLPEKIHHKVSENWISATLLVTPVVGTYWYAQYFKEQEKLEHRF")
"soluble"
>>> result("MGSDKIHHHHHHMTSPSPDQVIRQEILALSAYHVPPAKDMVKLDAMENPYRLPPFLCEEISRIAADTSINRYPDPHAAALKEVLSTTLSVPAGMEIMLGNGSDEIIQIIMLAAAKPEAKLLTIEPGFAMFKMIATFANMQYIGIPLKPDFSLDIDRMLAAIERHQPSVIFLAYPNNPSGNLFDTSALEKIIEISPGLVVIDEAYHPFAGKSFIGRLADYPNLLVMRTLSKLGLAGLRLGLLAGRPEWLSHLEKLRLPYNVNVITQLVATKIMQHYDVLQQQADAIRQTRTRLRTFLENLNGIEVFPSNANFILFRLDGASQIFRLLQQHGILVKNLDNSHPLLKNCLRVTVGTPEENDRFCNTLQDLIAGN")
"not soluble"
